# assay overview: Photolysis quantum yields
# Assay type: physicochemical
# condition info: unbuffered 18 MΩ Ultrapure H2O; conversion <2%
assay endpoint: Φapp, quantum yield for the appearance of rearranged acid

{"structure as smiles": "Cc1cc(C(=O)COC(=O)CCCN)ccc1O.O=C(O)C(F)(F)F", "recorded result": 0.13}
{"structure as smiles": "NCCCC(=O)OCC(=O)c1ccc(O)cc1.O=C(O)C(F)(F)F", "recorded result": 0.16}
{"structure as smiles": "NCCCC(=O)OCC(=O)c1ccc(O)c(F)c1.O=C(O)C(F)(F)F", "recorded result": 0.15}
{"structure as smiles": "Cc1cc(C(=O)COC(=O)CCCN)cc(C)c1O.O=C(O)C(F)(F)F", "recorded result": 0.13}

---

Measured Φdis, quantum yield for the disappearance of pHP GABA of individual entries
# assay overview: Photolysis quantum yields
# Format: physicochemical
# condition info: unbuffered 18 MΩ Ultrapure H2O; conversion <2%
assay endpoint: Φdis, quantum yield for the disappearance of pHP GABA

{"molecule": "NCCCC(=O)OCC(=O)c1ccc(O)c(F)c1.O=C(O)C(F)(F)F [Compound 16]", "recorded result": 0.16}
{"molecule": "Cc1cc(C(=O)COC(=O)CCCN)ccc1O.O=C(O)C(F)(F)F [Compound 6]", "recorded result": 0.15}
{"molecule": "NCCCC(=O)OCC(=O)c1ccc(O)cc1.O=C(O)C(F)(F)F [Compound 1]", "recorded result": 0.20}
{"molecule": "Cc1cc(C(=O)COC(=O)CCCN)cc(C)c1O.O=C(O)C(F)(F)F [Compound 8]", "recorded result": 0.15}
{"molecule": "COc1cc(C(=O)COC(=O)CCCN)cc(OC)c1O.O=C(O)C(F)(F)F [Compound 3]", "recorded result": 0.03}

---

# k2, rate constant for triplet decay annotations
# assay overview: Laser flash photolysis / femtosecond pump-probe spectroscopy
# Type: physicochemical
# condition info: unbuffered H2O

{"structure as smiles": "NCCCC(=O)OCC(=O)c1ccc(O)c(C(=O)O)c1.O=C(O)C(F)(F)F", "k2, rate constant for triplet decay": "1.0 109 s^−1"}
{"structure as smiles": "NCCCC(=O)OCC(=O)c1ccc(O)cc1.O=C(O)C(F)(F)F", "k2, rate constant for triplet decay": "3.0 ^c 109 s^−1"}
{"structure as smiles": "NCCCC(=O)OCC(=O)c1ccc(O)c(C(N)=O)c1.O=C(O)C(F)(F)F", "k2, rate constant for triplet decay": "2.2 109 s^−1"}
{"structure as smiles": "COC(=O)c1cc(C(=O)COC(=O)CCCN)ccc1O.O=C(O)C(F)(F)F", "k2, rate constant for triplet decay": "1.3 109 s^−1"}
{"structure as smiles": "COc1cc(C(=O)COC(=O)CCCN)ccc1O.O=C(O)C(F)(F)F", "k2, rate constant for triplet decay": "1.3 109 s^−1"}

---

# assay overview: Photolysis quantum yields
# Format: physicochemical
# condition info: unbuffered 18 MΩ Ultrapure H2O; conversion <2%
Threshold-based label: Φapp, quantum yield for the appearance of GABA under 0.1 gives true, Φapp, quantum yield for the appearance of GABA not under 0.1 gives false.

{"molecule": "COc1cc(C(=O)COC(=O)CCCN)cc(OC)c1O.O=C(O)C(F)(F)F [Compound 3]", "assigned category": "true"}
{"molecule": "Cc1cc(C(=O)COC(=O)CCCN)cc(C)c1O.O=C(O)C(F)(F)F [Compound 8]", "assigned category": "false"}
{"molecule": "COc1cc(C(=O)COC(=O)CCCN)ccc1O.O=C(O)C(F)(F)F [Compound 2]", "assigned category": "true"}
{"molecule": "NCCCC(=O)OCC(=O)c1ccc(O)c(F)c1.O=C(O)C(F)(F)F [Compound 16]", "assigned category": "false"}
{"molecule": "Cc1cc(C(=O)COC(=O)CCCN)ccc1O.O=C(O)C(F)(F)F [Compound 6]", "assigned category": "false"}
{"molecule": "NCCCC(=O)OCC(=O)c1ccc(O)cc1.O=C(O)C(F)(F)F [Compound 1]", "assigned category": "false"}
